The measured values listed here are drawn from PubChem BioAssay AID1963958.

Tested on: MDA-MB-231 multicell spheroids, viability
assayNotes: Anticancer human tumor MDA-MB-231 cell line growth inhibition [PI3K];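 further: spheroids exposed to agents for seven days before reading; percent of vehicle control luminescence with DMSO treated spheroids as 100%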
appliedConditions: compound 0.1 µM; stronger effect = lower value
Measured viability, T/C, listed per entry for reference.

Sample records with viability, T/C:
[[record]]
compound = "CC1(C)CCC(CN2CCN(c3ccc(C(=O)NS(=O)(=O)c4ccc(NCC5CCOCC5)c([N+](=O)[O-])c4)c(Oc4cnc5[nH]ccc5c4)c3)CC2)=C(c2ccc(Cl)cc2)C1"
outcomemeasure = "viability, T/C"
reportedmeasurement = "103% [middle of 4 runs]"

[[record]]
compound = "CC(Nc1ncnc2nc[nH]c12)c1cc2cccc(Cl)c2c(=O)n1-c1ccccc1 (configuration not stated)"
outcomemeasure = "viability, T/C"
reportedmeasurement = "100% [middle of 8 runs]"

[[record]]
compound = "Cn1ncc(Cl)c1-c1cc(C(=O)NC(CN)Cc2cccc(F)c2)sc1Cl (configuration not stated)"
outcomemeasure = "viability, T/C"
reportedmeasurement = "99.8% [middle of 4 runs]"

[[record]]
compound = "Cn1nccc1Nc1nccc(-c2ccn(C(CO)c3ccc(Cl)c(F)c3)c(=O)c2)n1 (configuration not stated)"
outcomemeasure = "viability, T/C"
reportedmeasurement = "70.7% [middle of 4 runs]"

[[record]]
compound = "CC(Cn1ccc(-c2ccc(C#N)c(Cl)c2)n1)NC(=O)c1cc(C(C)O)[nH]n1 (configuration not stated)"
outcomemeasure = "viability, T/C"
reportedmeasurement = "99% [middle of 4 runs]"


In: Given the entry `CCCS(=O)(=O)Nc1ccc(F)c(C(=O)c2c[nH]c3ncc(-c4ccc(Cl)cc4)cc23)c1F` , what viability, T/C was observed with MDA-MB-231 multicell spheroids, viability?
Out: 111% [middle of 4 runs]

In: Provide the documented viability, T/C with MDA-MB-231 multicell spheroids, viability as the system for `CNC(=O)c1ccc(N2C(=S)N(c3ccc(C#N)c(C(F)(F)F)c3)C(=O)C2(C)C)cc1F`
Out: 111% [middle of 4 runs]

In: Find viability, T/C (MDA-MB-231 multicell spheroids, viability) for the entry `COc1c(OCCCN2CCOCC2)ccc2c3n(c(=NC(=O)c4cnc(N)nc4)nc12)CCN3`
Out: 46.3% [middle of 8 runs]

In: What is its viability, T/C for MDA-MB-231 multicell spheroids, viability? Entry: C=CC(=O)N1CCN(c2nc(=O)n(-c3c(C)ccnc3C(C)C)c3nc(-c4c(O)cccc4F)c(F)cc23)C(C)C1 (configuration not stated)
Out: 101% [middle of 4 runs]

In: Lab note: need viability, T/C for Cc1nc(NC(=O)N2CCCC2C(N)=O)sc1-c1ccnc(C(C)(C)C(F)(F)F)c1 (configuration not stated) on MDA-MB-231 multicell spheroids, viability, anyone have it?
Out: 88.9% [middle of 8 runs]

In: So what viability, T/C did CC1(C)CCC(Nc2ncc(C(F)(F)F)c(-c3c[nH]c4c(P(C)(C)=O)c(C#N)ccc34)n2)CN1 (configuration not stated) get with MDA-MB-231 multicell spheroids, viability?
Out: 42.5% [middle of 4 runs]

In: Query viability, T/C on MDA-MB-231 multicell spheroids, viability for `CC(=O)c1c(C)c2cnc(Nc3ccc(N4CCNCC4)cn3)nc2n(C2CCCC2)c1=O`
Out: 49.9% [middle of 4 runs]

====

Tested on: MDA-MB-231 multicell spheroids, viability
assayNotes: Anticancer human tumor MDA-MB-231 cell line growth inhibition [PI3K];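 further: spheroids exposed to agents for seven days before reading; percent of vehicle control luminescence with DMSO treated spheroids as 100%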
appliedConditions: second compound 0.1 µM; first compound 3.16 µM; stronger effect = lower value
// reported viability, T/C for each item listed

Observe how each entry below is paired with its result.
[[record]]
molecule = "C#Cc1c(F)ccc2cc(O)cc(-c3ncc4c(N5CC6CCC(C5)N6)nc(OCC56CCCN5CC(F)C6)nc4c3F)c12 (stereo unspecified) + COc1c(OCCCN2CCOCC2)ccc2c3n(c(=NC(=O)c4cnc(N)nc4)nc12)CCN3"
measuredon = "MDA-MB-231 multicell spheroids, viability"
reportedmeasurement = "33%"

[[record]]
molecule = "CC(C)NCC(C(=O)N1CCN(c2ncnc3c2C(C)CC3O)CC1)c1ccc(Cl)cc1 (stereo unspecified) + COc1c(OCCCN2CCOCC2)ccc2c3n(c(=NC(=O)c4cnc(N)nc4)nc12)CCN3"
measuredon = "MDA-MB-231 multicell spheroids, viability"
reportedmeasurement = "37.9%"

[[record]]
molecule = "Cn1nccc1Nc1nccc(-c2ccn(C(CO)c3ccc(Cl)c(F)c3)c(=O)c2)n1 (stereo unspecified) + CC(Nc1ccc2c(c1)OCCn1cc(N3C(=O)OCC3C(F)F)nc1-2)C(N)=O"
measuredon = "MDA-MB-231 multicell spheroids, viability"
reportedmeasurement = "25.5%"

[[record]]
molecule = "CC1(C)CCC(CN2CCN(c3ccc(C(=O)NS(=O)(=O)c4ccc(NCC5CCOCC5)c([N+](=O)[O-])c4)c(Oc4cnc5[nH]ccc5c4)c3)CC2)=C(c2ccc(Cl)cc2)C1 + COc1c(OCCCN2CCOCC2)ccc2c3n(c(=NC(=O)c4cnc(N)nc4)nc12)CCN3"
measuredon = "MDA-MB-231 multicell spheroids, viability"
reportedmeasurement = "48.9%"


In: What does the data say about its viability, T/C? Entry: Cn1ncc(Cl)c1-c1cc(C(=O)NC(CN)Cc2cccc(F)c2)sc1Cl (stereo unspecified) + CC(Nc1ncnc2nc[nH]c12)c1cc2cccc(Cl)c2c(=O)n1-c1ccccc1
Out: 53.3%

In: Reported viability, T/C, molecule CC(Cn1ccc(-c2ccc(C#N)c(Cl)c2)n1)NC(=O)c1cc(C(C)O)[nH]n1 (stereo unspecified) + Cc1nc(NC(=O)N2CCCC2C(N)=O)sc1-c1ccnc(C(C)(C)C(F)(F)F)c1 : ____
Out: 86.2%

In: Which viability, T/C reading was recorded for the molecule CC(Cn1ccc(-c2ccc(C#N)c(Cl)c2)n1)NC(=O)c1cc(C(C)O)[nH]n1 (stereo unspecified) + COc1c(OCCCN2CCOCC2)ccc2c3n(c(=NC(=O)c4cnc(N)nc4)nc12)CCN3 ?
Out: 45.1%

In: May I ask what viability, T/C has been recorded for CC(C)NCC(C(=O)N1CCN(c2ncnc3c2C(C)CC3O)CC1)c1ccc(Cl)cc1 (stereo unspecified) + Cc1nc(NC(=O)N2CCCC2C(N)=O)sc1-c1ccnc(C(C)(C)C(F)(F)F)c1 ?
Out: 64%

In: Quick check: viability, T/C of CC(C)NCC(C(=O)N1CCN(c2ncnc3c2C(C)CC3O)CC1)c1ccc(Cl)cc1 (stereo unspecified) + CC(Nc1ccc2c(c1)OCCn1cc(N3C(=O)OCC3C(F)F)nc1-2)C(N)=O ?
Out: 54.5%

In: Which viability, T/C value belongs to CNC(=O)c1ccc(N2C(=S)N(c3ccc(C#N)c(C(F)(F)F)c3)C(=O)C2(C)C)cc1F + CC(Nc1ccc2c(c1)OCCn1cc(N3C(=O)OCC3C(F)F)nc1-2)C(N)=O ?
Out: 64%

In: Dear colleague, I am looking for the recorded viability, T/C of the following molecule: CC1(C)CCC(Nc2ncc(C(F)(F)F)c(-c3c[nH]c4c(P(C)(C)=O)c(C#N)ccc34)n2)CN1 (stereo unspecified) + Cc1nc(NC(=O)N2CCCC2C(N)=O)sc1-c1ccnc(C(C)(C)C(F)(F)F)c1
Out: 52.5%

In: Field request: viability, T/C | item: C#Cc1c(F)ccc2cc(O)cc(-c3ncc4c(N5CC6CCC(C5)N6)nc(OCC56CCCN5CC(F)C6)nc4c3F)c12 (stereo unspecified) + CC(Nc1ncnc2nc[nH]c12)c1cc2cccc(Cl)c2c(=O)n1-c1ccccc1
Out: 79.5%

In: Which viability, T/C is reported for this molecule? CCCS(=O)(=O)Nc1ccc(F)c(C(=O)c2c[nH]c3ncc(-c4ccc(Cl)cc4)cc23)c1F + Cc1nc(NC(=O)N2CCCC2C(N)=O)sc1-c1ccnc(C(C)(C)C(F)(F)F)c1
Out: 51.6%

In: # query: viability, T/C of entry CCCS(=O)(=O)Nc1ccc(F)c(C(=O)c2c[nH]c3ncc(-c4ccc(Cl)cc4)cc23)c1F + COc1c(OCCCN2CCOCC2)ccc2c3n(c(=NC(=O)c4cnc(N)nc4)nc12)CCN3
Out: 34%

In: Please report the recorded viability, T/C for C[C@@H](NC(=O)c1ncnc(N)c1Cl)c1ncc(C(=O)Nc2cc(C(F)(F)F)c(Cl)cn2)s1 + CC(Nc1ncnc2nc[nH]c12)c1cc2cccc(Cl)c2c(=O)n1-c1ccccc1 .
Out: 72.7%

In: Request the reported viability, T/C associated with C[C@@H](NC(=O)c1ncnc(N)c1Cl)c1ncc(C(=O)Nc2cc(C(F)(F)F)c(Cl)cn2)s1 + Cc1nc(NC(=O)N2CCCC2C(N)=O)sc1-c1ccnc(C(C)(C)C(F)(F)F)c1
Out: 53.6%

In: viability, T/C for CNC(=O)c1ccc(N2C(=S)N(c3ccc(C#N)c(C(F)(F)F)c3)C(=O)C2(C)C)cc1F + CC(Nc1ncnc2nc[nH]c12)c1cc2cccc(Cl)c2c(=O)n1-c1ccccc1 ?
Out: 95.7%

In: May I ask what viability, T/C has been recorded for CC1(C)CCC(Nc2ncc(C(F)(F)F)c(-c3c[nH]c4c(P(C)(C)=O)c(C#N)ccc34)n2)CN1 (stereo unspecified) + COc1c(OCCCN2CCOCC2)ccc2c3n(c(=NC(=O)c4cnc(N)nc4)nc12)CCN3 ?
Out: 30.7%
